Molecular target: HLA-B*08:01 (human)
Experiment: UV-induced peptide exchange, HLA class I ELISA; Pos peptide = 100%
Conditions: remark: other sources report otherwise
Kindly supply the reported exchange rate with Pos peptide values for the records listed here.
Output should be the measured figure followed by the unit it is expressed in.

Here are 7 binders together with their reported answers.
binder	reported_endpoint	measurement
CYLGRQKRF (here or on the partner: biotinylated heavy chain) [P61 9-mer …]	exchange rate with Pos peptide	3.6%
CPMSRLRLA (here or on the partner: biotinylated heavy chain) [P46 9-mer …]	exchange rate with Pos peptide	14.5%
HVPKILSGK (here or on the partner: biotinylated heavy chain) [P58 9-mer …]	exchange rate with Pos peptide	5.3%
LLERNSFEV (here or on the partner: biotinylated heavy chain) [P73 9-mer …]	exchange rate with Pos peptide	2.6%
IVWWCPMSR (here or on the partner: biotinylated heavy chain) [P98 9-mer …]	exchange rate with Pos peptide	2.4%
QLIAMDSAI (here or on the partner: biotinylated heavy chain) [P22 9-mer …]	exchange rate with Pos peptide	3.9%
RVGNCKHLK (here or on the partner: biotinylated heavy chain) [P82 9-mer …]	exchange rate with Pos peptide	1.4%

Now look at this entry.
Given the entry LMAQRLLLR (here or on the partner: biotinylated heavy chain) [P97 9-mer …] , report its measured exchange rate with Pos peptide.
2.7%
